Data origin, for the record: PubChem BioAssay (EPA / NIEHS)

- experimentalProtocol: TOX21_p53_BLA_p3_viability: Viability Assessment in the Tox21 HCT-116 p53 Agonism Beta-lactamase Assay, Phase 3 (AID 2283593);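 also: cells exposed to compound for 16 h before reading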
Inconclusive results are not listed. Active and inactive are the calls of the source. The calls were made as follows: active = hit-call score of the fitted dose curve at least 0.9, where 1 is the maximum; inconclusive = response in the unintended direction; inactive = score below 0.9.
API: response.call in active, inactive

Solved entries (count: 6):
Challenge: Hey, what did the test say about c1ccc(Nc2cccc3ccccc23)cc1 ?
Response given: inactive

Challenge: Name the outcome recorded for COCC(=O)O in the assay.
Response given: inactive

Challenge: Which outcome did this test record for the compound CCCCCC(=O)OCC ?
Response given: inactive

Challenge: Tell me the recorded outcome of this test for CCCCCCCCCCCC(=O)OCC .
Response given: inactive

Challenge: Hi, do you know how O=C(O[C@@H]1Cc2c(O)cc(O)cc2O[C@@H]1c1cc(O)c(O)c(O)c1)c1cc(O)c(O)c(O)c1 came out in this test?
Response given: inactive

Challenge: How did this test come out for CC(C)(CO)COC(=O)C(C)(C)CO ?
Response given: inactive

Continuing:
Challenge: So what was the verdict on CCC(C)(O)CCCC(C)C (stereo not given) in this test?
Response given: inactive

Challenge: Would you mind telling me which call this test gave CCCCNS(=O)(=O)c1ccccc1 ?
Response given: inactive

Challenge: So what was the verdict on CC(C)CC(=O)OCc1ccccc1 in this test?
Response given: inactive

Challenge: So what was the verdict on CC(=O)c1ccc(S(=O)(=O)NC(=O)NC2CCCCC2)cc1 in this test?
Response given: inactive

Challenge: Kindly provide the recorded test outcome for the following compound: CN(C)Cc1cc(CN(C)C)c(O)c(CN(C)C)c1
Response given: inactive

Challenge: Call for entry CCCCNC(=S)NCCCC :
Response given: inactive

###

- experimentalProtocol: BSK_SAg_Proliferation: Cell Proliferation Assessment in the BioMAP Diversity Plus: SAg Assay (AID 2283095);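 also: relative cell number as total protein by SRB absorbance in sub-confluent culture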
- details: primary human HUVEC with PBMC
Activity calls are given as the source filed them. The calls were made as follows: active = hit-call score of the fitted dose curve at least 0.9, where 1 is the maximum; inactive = score below 0.9.
observationType: AC50

Here is how some compounds turned out for AC50.
Sample CC(C)c1cccc(C(C)C)c1N ; AC50 observed: inactive

// sample C=CC(=O)NCOCCCC , its AC50 was inactive

Noted for C=CCCCCCCCCC=O : its AC50 reads inactive

Consider Oc1ccccc1Cc1ccccc1O . Its measured AC50 is inactive

Field AC50 (entry Cc1c(O)cccc1O ) reads 31 µM (active)

Further cases:
So for Oc1c(Cl)cc(Cl)c(Cl)c1Cl , the logged AC50 turned out to be 20 µM (active)

compound CCOC(=O)C1=NOC(c2ccccc2)(c2ccccc2)C1 , AC50 observed: inactive

The reported AC50 of the compound COc1ccc(C(=O)c2ccccc2)c(O)c1 was inactive

Recorded AC50 (compound CC1(C)CC(O)CC(C)(C)N1[O] ): inactive

The value of AC50 measured for the compound CCCCCCCCC(CO)CCCCCC (stereo not given) turned out to be inactive

For this compound ( Cc1ccc([N+](=O)[O-])cc1N ), measured AC50 is inactive

Value of AC50 reported for the compound CC/C=C\C/C=C\C/C=C\CCCCCCCC(=O)OC is 6.5 µM (active)

C=CC(=O)NC(C)(C)C has a reported AC50 of inactive

Lab note: c1ccc2c(c1)[nH]c1ccccc12 gave AC50 of inactive

For CC(Cl)COP(=O)(OCC(C)Cl)OCC(C)Cl (stereo not given) the compound record lists AC50 as inactive

###

- Read-out: CD40, CD40 (gene 958)
- experimentalProtocol: BSK_LPS_CD40: BioMAP Diversity Plus: LPS Assay for CD40 Biomarker Activity (AID 2283076)
- details: primary human HUVEC with PBMC; actives raise or lower the signal
Calls of active or inactive are those of the source. The calls were made as follows: active = hit-call score of the fitted dose curve at least 0.9, where 1 is the maximum; inactive = score below 0.9.
Log the outcome using a class from active, inactive

# count of solved cases: 2
Challenge: Outcome logged for Oc1c(Cl)cc(Cl)c(Cl)c1Cl in this assay:
Response given: active

Challenge: # lookup: test call for CCOC(=O)/C=C\C(=O)OCC
Response given: inactive

Further cases:
Challenge: Please let me know the test result on file for Cc1c(O)cccc1O .
Response given: inactive

Challenge: Kindly provide the recorded test outcome for the following compound: CC(C)CCCCCOC(=O)CS
Response given: inactive

Challenge: Dear colleague, could you share the recorded outcome for CC=C(C)C=CC=C(C)C when you have a moment?
Response given: active

Challenge: Name the outcome recorded for Nc1ccc(C(=O)O)cc1 in the assay.
Response given: inactive

Challenge: Hi, do you know how O=C1CCCCCCCCCCC1 came out in this test?
Response given: inactive

Challenge: What was the test verdict on COC(OC)(C(=O)c1ccccc1)c1ccccc1 ?
Response given: inactive

Challenge: What outcome does the record of this test show for CCCCCCCCCCCC(C)=O ?
Response given: active

Challenge: Fill in: this test's call for C=CC(=O)NCOCCCC is ___
Response given: inactive

Challenge: Fill in: this test's call for CC(CCC(=O)O)(c1ccc(O)cc1)c1ccc(O)cc1 is ___
Response given: inactive

Challenge: Field: outcome | Entry: CCCCC1C(=O)N(c2ccccc2)N(c2ccccc2)C1=O
Response given: inactive

Challenge: Returns: the outcome recorded for CCOC(=O)C1=NN(c2ccc(Cl)cc2Cl)C(C)(C(=O)OCC)C1 (stereo not drawn) in this assay.
Response given: inactive

###

- Read-out: Vascular cell adhesion molecule 1 (VCAM1), VCAM1 (gene 7412)
- experimentalProtocol: BSK_4H_VCAM1: BioMAP Diversity Plus: 4H Assay for Vascular cell adhesion molecule 1 (VCAM1) Biomarker Activity (AID 2283033);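 as to outcome: cell-surface VCAM-1 protein measured by ELISA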
- details: primary human endothelial cells (HUVEC); actives raise or lower the signal
Calls of active or inactive are those of the source. Rule for the calls: active = hit-call score of the fitted dose curve at least 0.9, where 1 is the maximum; inactive = score below 0.9.
Write down one outcome, taken from yes (1) (active), no (0) (inactive)

Would you please look over these solved cases?
Challenge: Check the results log: what was the call for Fc1ccc(Br)cc1 ?
Response given: no (0)

Challenge: Entry c1ccc2c(c1)[nH]c1ccccc12 : call = ?
Response given: no (0)

Challenge: Call for entry C=CCCCCCCCCC=O :
Response given: no (0)

Challenge: I'd appreciate the recorded outcome for CC=C(C)C(C)=O from this test.
Response given: no (0)

Others:
Challenge: Entry O=C1CCCCCCCCCCCN1 : call = ?
Response given: no (0)

Challenge: Kindly provide the recorded test outcome for the following molecule: CC(Cl)COP(=O)(OCC(C)Cl)OCC(C)Cl (stereo unspecified)
Response given: no (0)

Challenge: Recorded test call requested for CCOC(=O)/C=C\C(=O)OCC
Response given: no (0)

Challenge: Please share the test call associated with CC1(C)CC(O)CC(C)(C)N1[O] .
Response given: no (0)

Challenge: Per the assay record, what outcome was assigned to CC/C=C\C/C=C\C/C=C\CCCCCCCC(=O)OC ?
Response given: yes (1)

Challenge: Could you check what this test reported for CC(C)[N+](C)(CCOC(=O)C1c2ccccc2Oc2ccccc21)C(C)C ?
Response given: no (0)

###

- experimentalProtocol: CCTE_Shafer_MEA_acute_per_network_burst_spike_number_mean: CCTE's Neural Acute Assay for Average Number of Spikes in a Network Burst, Shafer Lab (AID 2284019)
Active and inactive are the calls of the source. How the source made its calls: active means hit-call score of the fitted dose curve at least 0.9, where 1 is the maximum; inactive means score below 0.9. Peptide text beside a SMILES is read from it.
Thanks in advance; please answer with one of these: true (1) (active), false (0) (inactive)

Some entries whose results are on file:
Challenge: # lookup: test call for CCCCCCCCCCCC(=O)N(C)CC(=O)O
Response given: true (1)

Challenge: Entry Nc1cccc(N)n1 : call = ?
Response given: true (1)

Challenge: Call for entry Cc1c(C(=O)c2c[nH]n(C)c2=O)ccc(S(C)(=O)=O)c1C1=NOCC1 :
Response given: false (0)

Next:
Challenge: What did the test return for CC1(C)CC(O)CC(C)(C)N1[O] ?
Response given: false (0)

Challenge: Can you look up the reported call for CCCC(C)C(=O)OCC (configuration not stated) for me?
Response given: false (0)

Challenge: Dear colleague, could you share the recorded outcome for COC(=O)[C@H](Cc1ccccc1)NC(=O)[C@@H](N)CC(=O)O (H-Asp-Phe-OMe) when you have a moment?
Response given: false (0)

Challenge: Would you mind telling me which call this test gave CC/C=C\CCOC(=O)c1ccccc1O ?
Response given: true (1)

###

- tgt: Nuclear receptor subfamily 4 group A member 2 (Homo sapiens)
- experimentalProtocol: ATG_NURR1_TRANS: Attagene TRANS-FACTORIAL HepG2 Assay for human Nuclear Receptor Related Protein 1 (NURR1) (AID 2282985)
- details: HepG2 Attagene TRANS reporter, mRNA readout
- Description: ATG_TRANS is a cell-based, multiplexed-readout assay that uses HepG2, a human liver cell line, with measurements taken at 24 hours after chemical dosing in a 24-well plate.ATG_NURR1_TRANS is one of 30 assay component(s) measured or calculated from the ATG_TRANS assay. […] This assay endpoint, ATG_NURR1_TRANS, was analyzed in the positive analysis fitting direction relative to DMSO as the negative control and baseline of activity. […]
Inconclusive results are not listed. Active and inactive are the calls of the source. The calls were made as follows: active = hit-call score of the fitted dose curve at least 0.9, where 1 is the maximum; inconclusive = response in the unintended direction; inactive = score below 0.9.
Please answer using one outcome listed in true (1) (active), false (0) (inactive)

Reference set, count: 5
Challenge: Per the assay record, what outcome was assigned to C1CCSC1 ?
Response given: false (0)

Challenge: GET /call?item= CCOC(=O)C1=NN(c2ccc(Cl)cc2Cl)C(C)(C(=O)OCC)C1 (stereo not drawn) returns the recorded outcome of this test.
Response given: true (1)

Challenge: Check the results log: what was the call for CC1=CC(C)C(C=O)CC1 (stereo not drawn) ?
Response given: false (0)

Challenge: I would be grateful if you could indicate the recorded call for CC(=O)OC(C)c1ccccc1 (stereo not drawn) .
Response given: false (0)

Challenge: Dear all, I need the recorded test outcome for O=C(O)C1CCC(C(=O)O)CC1 (stereo not drawn) , thank you.
Response given: false (0)

Continuing:
Challenge: Would you mind telling me which call this test gave CCCCCCCC(=O)OCC(COC(=O)CCCCCCC)OC(=O)CCCCCCC ?
Response given: false (0)

Challenge: Hello, I am checking results. What call was entered for C=CC(=O)OCCCCCCCCCC ?
Response given: false (0)

Challenge: Answer briefly: the call reported for C=C(C)C(=O)OCC(O)COc1ccc(C(C)(C)c2ccc(OCC(O)COC(=O)C(=C)C)cc2)cc1 (stereo not drawn) in this assay.
Response given: true (1)
